# system: T1, corticotropin-releasing hormone (CRH) peptide (human and mouse, not fully specified)
# T1 peptide: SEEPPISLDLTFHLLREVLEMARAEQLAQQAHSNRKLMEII
# assay: cell-based or functional assay
Provide the reported CHO-CRE-hCRHR1 0.5 nM CRH IC50 of each item.
Remember to put the unit after the number in your answer.

Data request: Read the entry PR302341-34 (antibody, human IgG1, kappa, V domains shown, Humanized, PTM-removed variant of PR302341) VH: QVQLVQSGAEVKKPGASVKVSCKASGYTFTDYFMKWVRQAPGQGLEWMGVINPNQGDIFYNQKFKGRVTMTVDKSISTAYMELSRLRSDDTAVYYCARGTDRALFAYWGQGTLVTVSS VL: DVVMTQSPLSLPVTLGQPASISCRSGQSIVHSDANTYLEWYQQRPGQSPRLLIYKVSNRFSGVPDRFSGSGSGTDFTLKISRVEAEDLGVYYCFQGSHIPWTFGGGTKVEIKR and write its reported CHO-CRE-hCRHR1 0.5 nM CRH IC50.
Data returned: 0.616 nM

Data request: Supply measured CHO-CRE-hCRHR1 0.5 nM CRH IC50 of PR302309-11 (antibody, human IgG1, kappa, V domains shown, Humanized variant of PR302309) VH: QIQLVQSGSELKKPGASVKVSCKASGYTFTNYGMNWVRQAPGQGLEWMGWINTYTGEPIYTDDFKGRFVFSLDTSVSTAYLQISSLKAEDTAVYYCSRSTMITTGGVFAYWGQGTLVTVSS VL: DIVMTQTPLSSPVTLGQPASISCRSSQTIVHSDGNTYLEWLQQRPGQPPRLLIYKVSNRFSGVPDRFSGSGAGTDFTLKISRVEAEDVGVYYCFQGSHVPWTFGGGTKVEIKR in your reply.
Data returned: 2.12 nM

Data request: Indicate its recorded CHO-CRE-hCRHR1 0.5 nM CRH IC50; the binder in question is PR302334-26 (antibody, human IgG1, kappa, V domains shown, Humanized variant of PR302334) VH: EVQLVESGGGLVQPGGSLRLSCAASGFTFSTYAMSWVRQAPGKGLEWVASIRSGGTTYYPDSVKGRFTISRDNSKNSLYLQMNSLRAEDTAVYYCTRGIDWGQGTTVTVSS VL: DIVMTQSPDSLAVSLGERATINCKASQSVNNDVAWYQQKPGQPPRLLIYYASNRYTGVPDRFSGSGSGTDFTLTISSLQAEDLAVYFCQQDYSSWTFGGGTKVEIKR
Data returned: 1.1 nM

Data request: Note down CHO-CRE-hCRHR1 0.5 nM CRH IC50 recorded for PR005660 (antibody, human IgG1, kappa, V domains shown, PTM-removal variant of PR004290) VH: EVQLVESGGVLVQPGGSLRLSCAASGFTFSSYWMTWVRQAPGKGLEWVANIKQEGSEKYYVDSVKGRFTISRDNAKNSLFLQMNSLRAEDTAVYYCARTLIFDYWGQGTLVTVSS VL: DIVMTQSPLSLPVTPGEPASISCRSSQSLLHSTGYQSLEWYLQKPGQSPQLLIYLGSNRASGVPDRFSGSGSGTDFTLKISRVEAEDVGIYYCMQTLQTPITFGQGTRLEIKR
Data returned: 10.3 nM
